Reported relative viability by item:
# System: NCI-H596
# test.protocol: relative viability (nuclei count vs DMSO), 5 days (fraction); higher = more cells survive
# protocol.conditions: first compound 2.53 µM

Field: example entries. Status: answers known.
* CCCCCCCCCCCC1=C(O)C(=O)C=C(O)C1=O [Embelin] + CC1(C)CCC(c2ccc(Cl)cc2)=C(CN2CCN(c3ccc(C(=O)NS(=O)(=O)c4ccc(N[C@H](CCN5CCOCC5)CSc5ccccc5)c(S(=O)(=O)C(F)(F)F)c4)cc3)CC2)C1 [Navitoclax] (partner 0.5 µM) | 1.12
* CCCCCCCCCCCC1=C(O)C(=O)C=C(O)C1=O [Embelin] + O=C(c1cc(Cc2n[nH]c(=O)c3ccccc23)ccc1F)N1CCN(C(=O)C2CC2)CC1 [Olaparib] (partner 8 µM) | 0.68
* CCCCCCCCCCCC1=C(O)C(=O)C=C(O)C1=O [Embelin] + COc1cc2c(Oc3ccc(NC(=O)C4(C(=O)Nc5ccc(F)cc5)CC4)cc3F)ccnc2cc1OCCCN1CCOCC1 [Foretinib] (partner 0.25 µM) | 1.02

Next compound, please.
Lookup: relative viability lookup needed for CCCCCCCCCCCC1=C(O)C(=O)C=C(O)C1=O [Embelin] + CCNC(=O)c1noc(-c2cc(C(C)C)c(O)cc2O)c1-c1ccc(CN2CCOCC2)cc1 [Luminespib] (partner 0.01 µM) , thanks.
Found: 1.43

Sourced from the supplement of paper PMC10307832
